Below, each entry is listed alongside its reported GFP response vs DMSO.
- method: RPL19A-GFP modulators, yeast TOR pathway, confirmation, cell-based, S. cerevisiae, flow cytometry, cherry picks, mother/daughter gates (AID 2270)
- condition-notes: S. cerevisiae RPL19A-GFP strain, 3 h, measured here: daughter cell gate, at 10 µM, stronger effect = lower value, 100 = same GFP as DMSO wells

compound: CCOC(=O)CS(=O)(=O)c1nc(-c2ccc(F)cc2)cc(C(F)(F)F)n1
unit-abbreviation: %
GFP response vs DMSO: 113
--
compound: COc1cccc(N=Nc2ccc3cccnc3c2O)c1
unit-abbreviation: %
GFP response vs DMSO: 97.6
--
compound: COC(=O)C1CCN(C(=O)COC(=O)CCc2nc3ccccc3c(=O)[nH]2)CC1
unit-abbreviation: %
GFP response vs DMSO: 99.6
--
compound: CCOc1ccc(/C=C/C(=O)c2c(O)cc(C)oc2=O)cc1
unit-abbreviation: %
GFP response vs DMSO: 96.1
--
compound: CC(=O)Nc1ccc(NC(=O)c2nc(S(=O)(=O)Cc3ccccc3)ncc2Cl)cc1
unit-abbreviation: %
GFP response vs DMSO: 99.8
--
compound: O=C(O)c1ccc(N/N=C/c2c(F)cccc2Cl)cc1
unit-abbreviation: %
GFP response vs DMSO: 100
--
compound: O=C(/C(=C/c1ccccc1)n1cncn1)c1ccc(Cl)cc1Cl
unit-abbreviation: %
GFP response vs DMSO: 92.7
--
compound: CCCc1[nH]nc2c1C(c1ccc(OC)c(CSC3=NCCS3)c1)C(C#N)=C(N)O2 (configuration not stated)
unit-abbreviation: %
GFP response vs DMSO: 97.3
--
compound: Cc1ccccc1OC1CCN(C(=O)C2CCC(=O)N(C3CCCC3)C2)CC1 (configuration not stated)
unit-abbreviation: %
GFP response vs DMSO: 98.4
--
compound: CCCc1[nH]nc2c1C1(C(=O)N(C(C)C)c3ccccc31)C(C#N)=C(N)O2 (configuration not stated)
unit-abbreviation: %
GFP response vs DMSO: 99.8
--
compound: CCOc1ccc(N/N=C(/C#N)C(N)=O)cc1
unit-abbreviation: %
GFP response vs DMSO: 65.8
--
compound: CCOc1ccc(Nc2nc(N(C)c3ccccc3)nc(N)c2[N+](=O)[O-])cc1
unit-abbreviation: %
GFP response vs DMSO: 94.7
--
compound: Cc1cc(NCCCn2ccnc2)n2ncc(-c3ccccc3)c2n1
unit-abbreviation: %
GFP response vs DMSO: 99.1
--
compound: CCCCOc1cccc(/C=C(\C#N)C(=O)NC2CC2)c1
unit-abbreviation: %
GFP response vs DMSO: 92.1
--
compound: Cc1csc(Nc2ccccc2C(F)(F)F)n1
unit-abbreviation: %
GFP response vs DMSO: 94.2
--
compound: COCCCN1C(=O)C2C(C(=O)Nc3cc(C)cc(C)c3)C3C=CC2(O3)C1C(=O)NC1CCCCC1 (configuration not stated)
unit-abbreviation: %
GFP response vs DMSO: 101
--
compound: CC(C)COC(=O)NCC12C=CC(O1)C1C(=O)N(c3ccc(Cl)cc3)C(=O)C12 (configuration not stated)
unit-abbreviation: %
GFP response vs DMSO: 99.5
--
compound: S=c1[nH]nc(NCCCN2CCOCC2)s1
unit-abbreviation: %
GFP response vs DMSO: 97.1
--
compound: Cc1cc(NCCCN2CCOCC2)n2ncc(-c3ccccc3)c2n1
unit-abbreviation: %
GFP response vs DMSO: 98.1
--
compound: COc1ccc(C(=O)NC(=S)NNC(=O)CCc2ccccc2)cc1
unit-abbreviation: %
GFP response vs DMSO: 104
--
compound: CCCCC(=O)O[C@]1(C(=O)CO)CC[C@H]2[C@@H]3CCC4=CC(=O)CC[C@]4(C)[C@H]3[C@@H](O)C[C@@]21C
unit-abbreviation: %
GFP response vs DMSO: 96.4
--
compound: O=C(c1ccc(Cl)c([N+](=O)[O-])c1)N1CCN(c2ccccc2)CC1
unit-abbreviation: %
GFP response vs DMSO: 101

----------
Below, each entry is listed alongside its reported GFP response, % of DMSO.
- method: modulators of CIT2-GFP expression in yeast, confirmation, S. cerevisiae, GFP fusion, cherry picks, mother/daughter gates (AID 2274)
- condition-notes: S. cerevisiae CIT2-GFP strain, flow cytometry, 3 h; at 10 µM; stronger effect = higher value

compound: CCOc1cc(N2CCOCC2)c(OCC)cc1NC(=O)C(NC(=O)c1ccco1)C(C)C (configuration not stated)
GFP response, % of DMSO (%): 108
--
compound: COc1ccc(OC)c(NC(=O)c2cccc3c2C(=O)N(C2CCCCC2)C3)c1
GFP response, % of DMSO (%): 101
--
compound: Cc1ccc(C(=O)Oc2oc(-c3ccco3)nc2C=Nc2ccc(Cl)cc2)cc1
GFP response, % of DMSO (%): 106
--
compound: Cc1ccn2c(NC(=O)c3ccco3)c(-c3ccccc3)nc2c1
GFP response, % of DMSO (%): 103
--
compound: Cc1ccc(C2CC(c3cccs3)=NN2S(=O)(=O)c2ccc(C)cc2)cc1 (configuration not stated)
GFP response, % of DMSO (%): 98.8
--
compound: COc1ccc(-c2cc(=O)n(-c3nc4ccccc4[nH]3)[nH]2)cc1
GFP response, % of DMSO (%): 95.9
--
compound: CC(=O)Nc1ccc(NC(=O)CSc2ncc(C(=O)Nc3ccccc3)c(=O)n2C)cc1
GFP response, % of DMSO (%): 105
--
compound: Cc1cccn2c(=O)c3cc(C(=O)NCCc4ccccc4)c(=N)n(CCCn4ccnc4)c3nc12
GFP response, % of DMSO (%): 100
--
compound: COc1ccc(NC(=S)NCCCCCC(=O)C[N+](=O)[O-])cc1
GFP response, % of DMSO (%): 99.7
--
compound: COCc1nnc(NC(=O)c2ccc(S(=O)(=O)N(C)c3ccccc3)cc2)o1
GFP response, % of DMSO (%): 96.9
--
compound: CC(C)(C)C1=CC=C(C(C)(C)C)C(=O)C1=O
GFP response, % of DMSO (%): 104
--
compound: CSc1ccc(/C=N/NC(=O)c2ccc(O)cc2)cc1
GFP response, % of DMSO (%): 103
--
compound: Cc1[nH]n(-c2ccccc2)c(=O)c1C(c1ccccc1[N+](=O)[O-])C(C#N)C#N (configuration not stated)
GFP response, % of DMSO (%): 98.4
--
compound: N/C(Cc1ccc(Cl)cc1)=N\OC(=O)c1cccc2ccccc12
GFP response, % of DMSO (%): 139
--
compound: O=C(O)CSC1CC(=O)N(c2ccc(Cl)cc2)C1=O (configuration not stated)
GFP response, % of DMSO (%): 104
--
compound: N#C/C(=C\c1cccc(Oc2ccccc2)c1)C(=O)N1CCOCC1
GFP response, % of DMSO (%): 90.9
--
compound: CCCCn1c(=O)c(C(=O)OCC)c(O)c2ccccc21
GFP response, % of DMSO (%): 94.4
--
compound: CC(C)c1nnc(SCC(=O)N2CCc3ccccc32)n1C
GFP response, % of DMSO (%): 97.8
--
compound: CCOc1ccc(N2C(=O)CC(Sc3ncccn3)C2=O)cc1 (configuration not stated)
GFP response, % of DMSO (%): 104
--
compound: COc1ccc(OC)c(S(=O)(=O)ON2C(=O)c3ccccc3C2=O)c1
GFP response, % of DMSO (%): 102
--
compound: CCOC(=O)c1sc(Nc2nc3c(OC)cccc3s2)nc1C
GFP response, % of DMSO (%): 100
--
compound: COc1ccc(CNC(=O)c2nc(S(=O)(=O)Cc3ccccc3)ncc2Cl)cc1
GFP response, % of DMSO (%): 106

----------
- test-system: Beta-adrenergic receptor kinase 1 (Homo sapiens) (UniProt P25098)
- Sequence (P25098 whole entry, looked up): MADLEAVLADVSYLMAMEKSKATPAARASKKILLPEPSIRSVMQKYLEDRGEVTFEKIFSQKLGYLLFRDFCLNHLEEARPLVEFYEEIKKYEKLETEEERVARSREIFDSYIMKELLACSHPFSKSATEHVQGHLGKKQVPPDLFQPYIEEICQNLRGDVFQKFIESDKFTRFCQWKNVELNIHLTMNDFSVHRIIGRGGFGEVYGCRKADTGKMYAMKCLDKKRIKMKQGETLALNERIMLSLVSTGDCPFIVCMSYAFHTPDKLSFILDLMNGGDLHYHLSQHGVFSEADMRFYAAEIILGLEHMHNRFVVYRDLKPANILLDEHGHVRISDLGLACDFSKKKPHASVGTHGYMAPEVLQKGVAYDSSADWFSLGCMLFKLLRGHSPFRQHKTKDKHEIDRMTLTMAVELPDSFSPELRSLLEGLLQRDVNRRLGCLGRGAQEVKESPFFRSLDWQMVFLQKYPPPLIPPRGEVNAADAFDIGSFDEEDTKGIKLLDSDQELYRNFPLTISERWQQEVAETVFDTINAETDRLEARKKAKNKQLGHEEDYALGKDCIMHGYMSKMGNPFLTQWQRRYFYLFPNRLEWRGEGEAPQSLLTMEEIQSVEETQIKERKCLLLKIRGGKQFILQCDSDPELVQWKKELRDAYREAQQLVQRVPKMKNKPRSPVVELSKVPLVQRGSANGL
- method: GRK2 binders displacing RNA aptamer, biochemical, validation, human GRK2, bead flow cytometry (AID 488806)
- condition-notes: bead-bound GRK2, FAM-aptamer displacement, at 10 µM, stronger effect = higher value

compound: CN(CCc1cnn(C)c1)Cc1nc(CC2CC2)no1
aptamer binding inhibition [%]: 2
--
compound: CN(C)CCOc1ccc(Cl)cc1C(C)(C)C
aptamer binding inhibition [%]: -1
--
compound: C[C@]12C=CC(=O)C=C1CCC1C3CC[C@](O)(C(=O)CO)[C@@]3(C)CC3OC312 (stereo partly specified)
aptamer binding inhibition [%]: 2
--
compound: CCC12CN3CC(CC)(CN(C1)C31C(=O)N(C)c3ccc(C)cc31)C2=O (stereo unspecified)
aptamer binding inhibition [%]: -3
--
compound: CCOC(=O)c1ccc2[nH]c(C)c(CCC(C)=O)c(=O)c2c1
aptamer binding inhibition [%]: 1
--
compound: C=C(C)c1nc2cc(OC)c(OC)cc2c(=O)o1
aptamer binding inhibition [%]: 0

----------
- method: LAP4-GFP expression modulators in yeast, confirmation, cell-based, cherry picks, flow cytometry, mother/daughter gates (AID 2271);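 note: ratio of sample to DMSO plate mean so 100% equals DMSO level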
- condition-notes: S. cerevisiae LAP4-GFP strain, 3 h, measured here: daughter cell gate response, at 10 µM, stronger effect = higher value, 100 means same as DMSO control

compound: Cc1ccc(C)c(Cn2ncc3ccccc32)c1
GFP response relative to DMSO / %: 97.5

compound: CCOc1ccc(-c2noc(-c3ccncc3)n2)cc1OCC
GFP response relative to DMSO / %: 106

compound: CNC(=O)/C(C#N)=C/c1c(N2CC(C)OC(C)C2)nc2ccccn2c1=O (stereo unspecified)
GFP response relative to DMSO / %: 92.6

compound: O=C1c2cccc3cccc(c23)C(=O)N1c1cccnc1
GFP response relative to DMSO / %: 86.4

compound: COCCN(CCOC)S(=O)(=O)c1ccc(C(=O)Nc2nnc(C)o2)cc1
GFP response relative to DMSO / %: 97.5

compound: O=C(NNC(=S)NC(=O)C12CC3CC(CC(C3)C1)C2)c1ccncc1
GFP response relative to DMSO / %: 125
